- experimental_system: Neu5Ac(a2-6)Gal(b1-4)GlcNAc(b1-2)Man(a1-3)[Man(a1-6)]Man(b1-4)GlcNAc(b1-4)GlcNAc
- protocol_text: glycan array binding signal (z-score within array); higher = stronger binding
- measurement_setup: glycan notation: IUPAC condensed, linker removed
The full list was thinned out, with the strongest signals kept by preference.
readout: glycan array binding signal (z-score)
In your answer, state the number alone without any accompanying words.

// query Consider the binder PILRa (Homo sapiens), Q9UKJ1 (protein) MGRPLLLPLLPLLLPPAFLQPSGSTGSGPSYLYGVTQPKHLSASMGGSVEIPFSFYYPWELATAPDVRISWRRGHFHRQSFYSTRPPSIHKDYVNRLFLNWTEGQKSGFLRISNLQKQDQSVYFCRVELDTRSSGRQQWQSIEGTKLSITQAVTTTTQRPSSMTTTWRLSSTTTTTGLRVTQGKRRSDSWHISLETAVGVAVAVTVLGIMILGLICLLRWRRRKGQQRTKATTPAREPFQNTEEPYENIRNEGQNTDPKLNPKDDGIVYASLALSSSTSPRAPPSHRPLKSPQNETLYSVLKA . State its measured glycan array binding signal (z-score).
// result -0.177

These entries and their values trace back to the supplement of paper PMC8728848.
